Each recorded value in this set is attributed to PubChem BioAssay (NCI).

# TGI per record follows
system: NCI-H226 lung; assay: NCI tumour cell line growth inhibition, 48 h
measured_endpoint: TGI

compound	test_result
CCC(CC)n1cnc2c(-c3cnc(N)cn3)nc(N3CC4CCC(C3)O4)nc21	> 100 µM
COc1ccc(N2C(=O)C3CC(c4ccc(Br)cc4)c4c([nH]c5ccccc45)C3C2=O)cc1 (stereo not given)	77.2 µM
CCOC(=O)c1ccc(-n2cnc(-c3ccc([N+](=O)[O-])cc3)c2)cc1	> 100 µM
Cc1ccc2c(c1)nc1n2C(c2c(F)cccc2F)SC1 (stereo not given)	> 100 µM
CSC(=NC(=O)c1ccccc1Cl)SCCSC(=NC(=O)c1ccccc1Cl)SC	> 100 µM

---

tested on: SK-MEL-5 melanoma; test: NCI tumour cell line growth inhibition, 48 h
# TGI per record follows

compound	TGI
Cc1c(NC(=S)Nc2ccc([N+](=O)[O-])cc2)c(=O)n(-c2ccccc2)n1C	> 100 µM
[N-]=[N+]=NCN1C(=O)C2C3C=CC(C2C1=O)C1C2C(=O)N(CN=[N+]=[N-])C(=O)C2C31 (centres undefined)	> 100 µM
COc1ccc(CCN2CCN(CCCc3ccccc3)CC2)cc1	56.9 µM
Cc1ccc(S(=O)(=O)ON2C(=O)c3cccc4cc([N+](=O)[O-])cc(c34)C2=O)cc1	> 100 µM
COc1ccc(C2SCC(=O)N2c2ccc(-n3c(-c4ccccc4)nc4ccccc4c3=O)cc2)cc1 (centres undefined)	> 100 µM
CCN(CC)CCN(CC)CC.CCN(CC)CCN(CC)CC.[Cu+2].[Cu+2].[O-][Cl+3]([O-])([O-])[O-].[OH3+].[OH3+]	29.5 µM
COC(=O)C1=C(C)NC(=O)N2[C@@H](CCOCc3ccccc3)CC[C@@H]12	> 50 µM
CC1C(C)(C)C23CC12C1(OCCO1)C3Br (centres undefined)	> 100 µM
CCCCCCCCCCCCSC(=S)c1c(C)[nH]n(-c2ccccc2)c1=O	15.9 µM

---

# GI50 per record follows
tested on: OVCAR-4 ovarian; experiment: NCI tumour cell line growth inhibition, 48 h

molecule	GI50
CCCc1nn(C)c2c(=O)[nH]c(-c3cc(S(=O)(=O)N4CCN(C)CC4)ccc3OCC)nc12	> 100 µM
CSc1cc([C@@H]2C[C@H]2c2ccc(Cl)cc2)on1	31.3 µM
COc1cc2nc(Nc3cccc(Cl)c3)nc(N)c2cc1OC	10.7 µM
CCN(CC)CCN(CC)CC.CCN(CC)CCN(CC)CC.[Cu+2].[Cu+2].[O-][Cl+3]([O-])([O-])[O-].[OH3+].[OH3+]	27.7 µM
CN1C(=O)CCC(N2C(=O)c3cccc(NCCOCCOCCNC(=O)c4cc5c(o4)C(=O)c4ccccc4C5=O)c3C2=O)C1=O (centres undefined)	1.43 µM
CCC1=C(c2ccc(OC)cc2)C(C)(C)Oc2c1ccc(O)c2CN1CCCC1	2.16 µM
CSc1ccc(C2=NN(C(C)=O)C(c3ccc(-c4cc(Cl)c(Cl)cc4Cl)o3)C2)cc1 (centres undefined)	13.4 µM
CC(=O)O.CN1[CH-]N(Cc2ccc(C#N)cc2)c2ccccc21.[Ag+]	15.8 µM
NC(=O)c1cc(N2CC2)c([N+](=O)[O-])cc1[N+](=O)[O-]	> 200 µM

---

# TGI per record follows
system: RXF 393 renal; experiment: NCI tumour cell line growth inhibition, 48 h

compound	censor_symbol	TGI, µM
COc1cc2nc(N3CCCN(C)CC3)nc(NC3CCN(Cc4ccccc4)CC3)c2cc1OC	=	3.12
O=C(C[n+]1ccccc1)N/N=C(/CCC(=O)N(Cc1ccccc1)Cc1ccccc1)CC(=O)c1ccccc1	>	100
CC(C)(C)C(=O)N1C(C(=O)O)Cc2ccccc2[C@@H]1Cc1ccccc1 (some centres undefined)	>	100
CC(=O)OCc1c(O)c2c([nH]c1=O)CCc1ccccc1-2	=	105

---

system: EKVX NSCLC; experiment: NCI tumour cell line growth inhibition, 48 h; in the data active = GI50 below about 0.43 µM; inactive = the rest
Labels: T for active, F for inactive

compound	class_name
CN(C)c1ccc(/C=N/NC(N)=S)nc1	F
C(=N\Nc1ncc(-c2cc3cc4c(cc3o2)OCO4)s1)/c1ccco1	F
CCSC[C@@H]1C[C@](O)(c2ccc(Cl)cc2)[C@@H](c2ccc(Cl)cc2)O1	F
FC1(F)ON2CCc3ccccc3C2[C@H]1c1ccccc1 (stereo partly specified)	F
CCOC(=O)c1[nH]c2cc(Cl)ccc2c1[C@@H](C(=O)NC(C)(C)C)N(CC)C(=O)CCCCC#Cc1cccc2c1CN(C1CCC(=O)NC1=O)C2=O (stereo partly specified)	F
CC1=C([Te]c2ccccc2)C(=O)c2ccccc2C1=O	T
CCCc1nn(C)c2c(=O)[nH]c(-c3cc(S(=O)(=O)N4CCN(C)CC4)ccc3OCC)nc12	F
COC(=O)/C=C1/SC(=Nc2cccc(Cl)c2)N(CCc2c[nH]c3ccc(O)cc23)C1=O	F
Fc1cccc(COc2ccc(Nc3ncnc4onc(-c5ccccc5)c34)cc2)c1	F
NC(=O)c1cc(N2CC2)c([N+](=O)[O-])cc1[N+](=O)[O-]	F
CC1SC(c2ccccc2Cl)N(NC(=O)C(O)c2ccccc2)C1=O (stereo unspecified)	F
COc1ccc(-c2ncnc3c2ncn3CC#CCCl)cc1	F
COc1ccc2cc(-c3cnc4nonc4n3)ccc2c1	F
O=C1c2c(c(=O)[nH]c3ccccc23)[C@H](c2ccccc2)[C@@H]2CCCN12	F
CSc1ccc(C2=NN(C(C)=O)C(c3ccc(-c4cc(Cl)c(Cl)cc4Cl)o3)C2)cc1 (stereo unspecified)	F
COc1cc2nc(N3CCCN(C)CC3)nc(NC3CCN(Cc4ccccc4)CC3)c2cc1OC	F

---

system: HCT-116 colon; test: NCI tumour cell line growth inhibition, 48 h

chemical_structure	TGI
Nc1ncnc2c1ncn2[C@H]1C=C[C@@H](NO)C1	> 100 µM
COc1ccc(CC(=O)NCCc2ccc(OC)c(OC)c2OC)cc1	> 100 µM
S=C(NCc1ccccc1)Nc1sc(=NCc2ccccc2)nc2sc3c(c12)CCN(N1CCc2c(sc4nc(=NCc5ccccc5)sc(NC(=S)NCc5ccccc5)c24)C1)C3	> 54.2 µM
O=C(O)/C=C/c1ccc(Oc2ccccc2C(=O)O)o1	> 10 µM
ClCc1nc2ccccc2[nH]1	> 100 µM

---

system: HCT-15 colon; assay: NCI tumour cell line growth inhibition, 48 h
measured_endpoint: TGI

compound	target_system	measured_endpoint	test_result
O=C1Nc2c(Cl)cc(Cl)cc2/C1=N/N=C/c1ccco1	HCT-15 colon	TGI	> 100 µM
CCn1c(SCC(=O)N/N=C2\SCC(=O)N2c2ccc(C)cc2)nc2ccccc2c1=O	HCT-15 colon	TGI	> 100 µM
c1ccc(SC(Sc2ccccc2)=C2CCC2)cc1	HCT-15 colon	TGI	> 100 µM
CN(C)Cc1cc(Cl)c(O)c(CN(C)C)c1	HCT-15 colon	TGI	> 100 µM
C[C@H](Nc1nc(N)c(N=O)c(=O)n1C)C(=O)O	HCT-15 colon	TGI	> 10 µM
FC1(F)ON2CCc3ccccc3C2[C@H]1c1ccccc1 (stereo partly specified)	HCT-15 colon	TGI	> 100 µM

---

# TGI per record follows
system: SN12C renal; experiment: NCI tumour cell line growth inhibition, 48 h

compound	TGI
Cc1cn(C2CC(n3cc(Cn4ccc(=O)[nH]c4=O)nn3)C(CO)O2)c(=O)[nH]c1=O (centres undefined)	> 100 µM
CC(NC1=NCCO1)c1ccccc1Cl (centres undefined)	> 100 µM
NCCCCC(NC(=O)C(N)CCCN=C(N)N)C(=O)NC(CCCCN)C(=O)NC(CCCN=C(N)N)C(=O)NC(CCCN=C(N)N)C(=O)NC(CCC(N)=O)C(=O)NC(CCCN=C(N)N)C(=O)NC(CCCN=C(N)N)C(=O)NC(CCCN=C(N)N)C(=O)NCC(=O)NCC(=O)O (centres undefined)	> 50 µM
Cc1ccc(CNc2ccc3nc(CCC4CCCCC4)[nH]c3c2)cc1	11.4 µM

---

system: SF-295 CNS; experiment: NCI tumour cell line growth inhibition, 48 h
measured_endpoint: TGI

compound	measured_endpoint	test_result
COC(=O)CCC(=O)Nc1ccc(Cl)cc1C	TGI	> 100 µM
Cc1ccc(OP(=O)(Oc2ccc(C)cc2)N2C=Cc3ccccc3C2C#N)cc1 (stereo unspecified)	TGI	> 100 µM
CC(C)(C)OC(=O)NCC(CNC(=O)OC(C)(C)C)C(N)=O	TGI	> 100 µM
CC1C(C)(C)C23CC12C1(OCCO1)C3Br (stereo unspecified)	TGI	> 100 µM
c1ccc(SC(Sc2ccccc2)=C2CCC2)cc1	TGI	> 100 µM
O=C1c2c(c(=O)[nH]c3ccccc23)[C@H](c2ccccc2)[C@@H]2CCCN12	TGI	47.8 µM

---

tested on: SK-MEL-28 melanoma; assay: NCI tumour cell line growth inhibition, 48 h
Where a SMILES comes first, the peptide text is derived from it. [ ]: non-standard residue; d: D form. pGlu = O=C1CC[CH](C(=O)O)N1; Thz = O=C(O)[CH]1CSCN1

molecule	target_system	TGI
CC(=O)O.CN1[CH-]N(Cc2ccc(C#N)cc2)c2ccccc21.[Ag+]	SK-MEL-28 melanoma	32.1 µM
OC1NC2Nc3ccccc3NC2NC1O (stereo not drawn)	SK-MEL-28 melanoma	> 100 µM
Cc1nc(-c2ccccc2)cn2c1nc1ccccc12	SK-MEL-28 melanoma	72.8 µM
COc1ccc(/C=C/c2cc(OC)c(OC(C)=O)c(OC)c2)cc1	SK-MEL-28 melanoma	25.3 µM
COC(=O)Nc1nc2ccc(NS(=O)(=O)c3cccs3)cc2[nH]1	SK-MEL-28 melanoma	> 100 µM
CC1SC(c2ccccc2Cl)N(NC(=O)C(O)c2ccccc2)C1=O (stereo not drawn)	SK-MEL-28 melanoma	> 100 µM
CCn1c(SCC(=O)N/N=C2\SCC(=O)N2c2ccc(C)cc2)nc2ccccc2c1=O	SK-MEL-28 melanoma	48.7 µM
NS(=O)(=O)c1ccc(NC(=O)N/N=C/c2ccccc2[N+](=O)[O-])cc1	SK-MEL-28 melanoma	> 100 µM
CC1C(C)(C)C23CC12C1(OCCO1)C3Br (stereo not drawn)	SK-MEL-28 melanoma	> 100 µM
NC(=S)N1N=C2CCCCCC[C@@H]2[C@H]1c1ccccc1	SK-MEL-28 melanoma	> 100 µM
COc1ccc(N2C(=O)C3CC(c4ccc(Br)cc4)c4c([nH]c5ccccc45)C3C2=O)cc1 (stereo not drawn)	SK-MEL-28 melanoma	28.5 µM
Cc1cc2c(F)c(Oc3ncnc(Nc4ccc(N5C[C@@H](C)N[C@@H](C)C5)cc4)c3C#N)cc(F)c2[nH]1	SK-MEL-28 melanoma	3.7 µM
COC(=O)C1=C(C)NC(=O)N2[C@@H](CCOCc3ccccc3)CC[C@@H]12	SK-MEL-28 melanoma	> 50 µM
COc1cc2nc(Nc3cccc(Cl)c3)nc(N)c2cc1OC	SK-MEL-28 melanoma	3.78 µM
CC(NC(=O)C1CCC(=O)N1)C(=O)N1CCCC1C(N)=O (stereo not drawn) ([pGlu]-Ala-Pro-NH2; configuration not given here)	SK-MEL-28 melanoma	> 100 µM
CCOC(=O)c1ccc(-n2cnc(-c3ccc([N+](=O)[O-])cc3)c2)cc1	SK-MEL-28 melanoma	> 100 µM
O=C1CCC(C(=O)N2CSCC2C(=O)O)N1 (stereo not drawn) ([pGlu]-[Thz]-OH; configuration not given here)	SK-MEL-28 melanoma	> 100 µM
C(=N\Nc1ncc(-c2cc3cc4c(cc3o2)OCO4)s1)/c1ccco1	SK-MEL-28 melanoma	12.3 µM
O=c1cc(-c2ccc(F)cc2)[nH]c2ncccc12	SK-MEL-28 melanoma	> 100 µM
CCOC(=O)C(NC(=O)c1cccc(Cl)c1)(Nc1ccc(S(=O)(=O)Nc2cc(C)on2)cc1)C(F)(F)F (stereo not drawn)	SK-MEL-28 melanoma	> 100 µM
COc1ccc(S(=O)(=O)Nc2ccc(-c3csc(N4C(=O)/C(=C/c5ccccc5[N+](=O)[O-])N=C4c4ccccc4)n3)cc2)cc1Cl	SK-MEL-28 melanoma	> 100 µM
O=C(C[n+]1ccccc1)N/N=C(/CCC(=O)N(Cc1ccccc1)Cc1ccccc1)CC(=O)c1ccccc1	SK-MEL-28 melanoma	> 100 µM
O=[N+]([O-])c1nccn1CC(O)c1ccccc1 (stereo not drawn)	SK-MEL-28 melanoma	> 100 µM
CCCn1cc2c(=O)[nH]c(SC)nc2n1	SK-MEL-28 melanoma	> 100 µM
COc1cc(C2C=C(c3ccccc3)Oc3cc4c(cc32)OCO4)cc(OC)c1OC (stereo not drawn)	SK-MEL-28 melanoma	> 100 µM
COc1nc(N)nc2c1ncn2C1CC(O)C(CO)O1 (stereo not drawn)	SK-MEL-28 melanoma	> 100 µM
Cn1c(-c2ccco2)ccc1-c1ccc(C=O)o1	SK-MEL-28 melanoma	> 100 µM
COc1ccc2cc(-c3cnc4nonc4n3)ccc2c1	SK-MEL-28 melanoma	> 100 µM
CCCCSC1=N/C(=C\c2ccccc2O)C(=O)N1	SK-MEL-28 melanoma	> 100 µM
Cc1ccc(S(=O)(=O)ON2C(=O)c3cccc4cc([N+](=O)[O-])cc(c34)C2=O)cc1	SK-MEL-28 melanoma	> 100 µM
COc1ccccc1C#Cc1ccccc1C#Cc1ccc(OCCCCCCOc2ccccc2C#Cc2ccccc2C#Cc2ccccc2OC)cc1	SK-MEL-28 melanoma	> 100 µM
COc1cc(-n2ccnc2-c2ccc3ccccc3c2)cc(OC)c1OC	SK-MEL-28 melanoma	38.3 µM
C#C[C@]1(O)CC[C@H]2[C@@H]3CCC4=C/C(=N\OCCN5CCCCC5)CC[C@]4(C)[C@H]3CC[C@@]21C	SK-MEL-28 melanoma	27.4 µM
Cc1ccc(/C=C/C(=O)c2ccc(Cl)c(Cl)c2)cc1	SK-MEL-28 melanoma	> 100 µM
Cc1ccc(NCC2(/N=C/c3ccccc3)OC(CO)C(O)C2O)cc1 (stereo not drawn)	SK-MEL-28 melanoma	> 100 µM
COC[C@H](NC(=O)c1cnc(C)s1)C(=O)N[C@@H](COC)C(=O)N[C@@H](Cc1ccccc1)C(=O)[C@@]1(C)CO1	SK-MEL-28 melanoma	> 95.1 µM
COc1ccc(NC(=O)Oc2ccc3c(C)cc(=O)oc3c2)c(OC)c1 (tested in a mixture with another compound)	SK-MEL-28 melanoma	> 100 µM
Cc1ccc2c(C(C[N+](=O)[O-])c3ccccc3)c(-c3ccccc3)[nH]c2c1 (stereo not drawn)	SK-MEL-28 melanoma	> 95 µM
